System: HMLER-shEcad mammospheres
Test: Mammosphere viability assay (TOX8)
Assay type: cell-based, human
Details: Homo sapiens, 120 h, 5 days incubation
Recorded IC50 for the following compounds

{"columns": ["COMPOUND", "UNIT", "OP", "IC50"],
 "data": [
  ["O=c1[nH]cc(F)c(=O)[nH]1 [5-Fluorouracil, 5-fluorouracil, reference compound]", "µM", "=", 15],
  ["CCCCCOC(=O)Nc1nc(=O)n([C@@H]2O[C@H](C)[C@@H](O)[C@H]2O)cc1F [Capecitabine, capecitabine]", "µM", ">", 133]
]}

###

// values below are reported IC50
Test system: MDA-MB-468 cells
Assay: Monolayer cytotoxicity (MTT assay), MDA-MB-468 cells
Format: cell-based, human
Details: 72 h incubation

{"columns": ["COMPOUND STRING", "IC50 (µM)"],
 "data": [
  ["COc1ccc2c(c1)c(CC(=O)[O][Au][PH](c1ccccc1)(c1ccccc1)c1ccccc1)c(C)n2C(=O)c1ccc(Cl)cc1", 4.47],
  ["COc1ccc2cc([C@H](C)C(=O)[O][Au][PH](c3ccccc3)(c3ccccc3)c3ccccc3)ccc2c1", 6.48],
  ["O=C([O][Au][PH](c1ccccc1)(c1ccccc1)c1ccccc1)c1cc(-c2ccc(F)cc2F)ccc1O", 7.12]
]}

###

Tested on: HMLER-shEcad cells
Assay: Monolayer cytotoxicity (MTT assay), HMLER-shEcad cells
Assay type: cell-based, human
Conditions: Homo sapiens; 72 h incubation, MTT
pIC50: −log10 of the molar value.

{"columns": ["COMPOUND STRING", "pIC50"],
 "data": [
  ["CCCCCOC(=O)Nc1nc(=O)n([C@@H]2O[C@H](C)[C@@H](O)[C@H]2O)cc1F", "< 4.00"]
]}

###

System: HMLER-shEcad cells
Experiment: Monolayer cytotoxicity (MTT assay), HMLER-shEcad cells
Type: cell-based, human
Settings: 72 h incubation, MTT
Procedure: Cell Lines and Cell Culture Conditions. The human mammary epithelial HMLER and HMLER-shEcad cell lines were kindly donated by Prof. R. A. Weinberg (Whitehead Institute, MIT). […] media. […] The optical density was measured at 550 nm using a 96-well multiscanner autoreader. Absorbance values were normalised to (DMSO-containing) control wells and plotted as concentration of test compound versus % cell viability. […] h, the fluorescence of the solutions was read at 590 nm (λex = 560 nm). […]
pIC50: −log10 of the molar value.

{"columns": ["COMPOUND", "pIC50"],
 "data": [
  ["[Cl][Au].c1ccc(P(c2ccccc2)c2ccccc2)cc1 [chloro(triphenylphosphine)gold(I)]", 6.67],
  ["COc1ccc2cc([C@H](C)C(=O)[O][Au][PH](c3ccccc3)(c3ccccc3)c3ccccc3)ccc2c1 [complex 3]", 7.20],
  ["CC(=O)OC[C@H]1O[C@@H]([S-])[C@H](OC(C)=O)[C@@H](OC(C)=O)[C@@H]1OC(C)=O.CCP(CC)CC.[Au+] [auranofin]", 7.59],
  ["O=C([O][Au][PH](c1ccccc1)(c1ccccc1)c1ccccc1)c1cc(-c2ccc(F)cc2F)ccc1O [complex 2]", 6.86],
  ["COc1ccc2c(c1)c(CC(=O)[O][Au][PH](c1ccccc1)(c1ccccc1)c1ccccc1)c(C)n2C(=O)c1ccc(Cl)cc1 [complex 1]", 7.25]
]}

###

Test system: HMLER-shEcad mammospheres
Assay: Mammosphere viability assay (TOX8)
Type: cell-based, human
Details: 5 days incubation

{"columns": ["MOLECULE", "IC50, µM"],
 "data": [
  ["COc1ccc2cc([C@H](C)C(=O)[O][Au][PH](c3ccccc3)(c3ccccc3)c3ccccc3)ccc2c1 [complex 3]", 8],
  ["COc1ccc2c(c1)c(CC(=O)[O][Au][PH](c1ccccc1)(c1ccccc1)c1ccccc1)c(C)n2C(=O)c1ccc(Cl)cc1 [complex 1]", 2],
  ["O=C([O][Au][PH](c1ccccc1)(c1ccccc1)c1ccccc1)c1cc(-c2ccc(F)cc2F)ccc1O [complex 2]", 8]
]}

###

Tested on: HMLER-shEcad cells
Assay: Monolayer cytotoxicity (MTT assay), HMLER-shEcad cells
Type: cell-based, human
Conditions: Homo sapiens, within concentration range tested

{"columns": ["COMPOUND STRING", "IC50"],
 "data": [
  ["COc1ccc2c(c1)c(CC(=O)O)c(C)n2C(=O)c1ccc(Cl)cc1", "> 100 µM"]
]}

###

Test: Water-octanol partition coefficient (shake-flask, UV-vis)
Type: physicochemical
Details: room temperature 24 h
This listing pairs compounds with measured LogP value.

{"columns": ["COMPOUND", "LogP value"],
 "data": [
  ["O=C([O][Au][PH](c1ccccc1)(c1ccccc1)c1ccccc1)c1ccccc1O", 0.75],
  ["Cc1cccc(Nc2ccccc2C(=O)[O][Au][PH](c2ccccc2)(c2ccccc2)c2ccccc2)c1C", 0.83],
  ["Cc1c(Cl)cccc1Nc1ccccc1C(=O)[O][Au][PH](c1ccccc1)(c1ccccc1)c1ccccc1", 1.17],
  ["O=C([O][Au][PH](c1ccccc1)(c1ccccc1)c1ccccc1)c1cc(-c2ccc(F)cc2F)ccc1O", 1.54],
  ["CC(C)Cc1ccc(C(C)C(=O)[O][Au][PH](c2ccccc2)(c2ccccc2)c2ccccc2)cc1 (stereo not drawn)", 1.19],
  ["COc1ccc2c(c1)c(CC(=O)[O][Au][PH](c1ccccc1)(c1ccccc1)c1ccccc1)c(C)n2C(=O)c1ccc(Cl)cc1", 1.64]
]}

###

System: HMLER cells
Test: Monolayer cytotoxicity (MTT assay), HMLER cells
Format: cell-based, human
Conditions: Homo sapiens; 72 h incubation, MTT

{"columns": ["COMPOUND STRING", "TARGET OF ASSAY", "IC50"],
 "data": [
  ["CCCCCOC(=O)Nc1nc(=O)n([C@@H]2O[C@H](C)[C@@H](O)[C@H]2O)cc1F", "HMLER cells", "> 100 µM"]
]}

Data origin: paper PMC9847679
